Assay: NCI Yeast Anticancer Drug Screen. Data for the mlh1 rad18 strain (AID 175)
Details: S. cerevisiae mlh1 rad18 strain growth inhibition; at 5.0 µM (retest, dose inferred, filed as 0.5); hits give high values
Description: Growth inhibition of yeast strains with defined genetic alterations is measured as a screen for potential anti-cancer activity. Selected strains with alterations in DNA damage repair or cell cycle control were exposed to compounds and growth inhibition was measured relative to vehicle treated controls. The strain used in this assay is mlh1 rad18
About 79,000 compounds went through this panel and 15% of them were active in at least one assay; those are over-represented in the sample as a whole.
metric: growth inhibition (%)
I only need the number, in %, no unit after it.

The examples below pair each entry with its known result.
Input line: Determine its reported growth inhibition: Cc1c2ccccc2c(C)n2c1nc1cc(Cl)c(Cl)cc12
Output line: 23

Input line: Determine from records and report growth inhibition for CCCCN(CCCC)CC(O)c1cc(-c2ccc(Cl)cc2)nc2c(C)cccc12 (stereo unspecified)
Output line: 7

Input line: State, in one line, measured growth inhibition of CCOC(=O)Cc1nc2ccccc2s1
Output line: 2

Input line: Give the measured growth inhibition for O=[N+]([O-])c1cccc(S(=O)(=O)Nc2cccc3ccccc23)c1
Output line: -3

Input line: Output measured growth inhibition for this item: CC(=O)CC(C)=O.CCN(CC)CC[C-]=O.[Pd+2]
Output line: 0

Input line: Supply measured growth inhibition of CCOC(=O)C1=C(N)N(S(=O)(=O)c2ccc(C)cc2)CCC(C(=O)OC)=C1 in your reply.
Output line: -2

Input line: Tell us which growth inhibition value is on record for O=C(Nc1ccccc1)O/N=C1/CCCC/C1=C\c1ccccc1
Output line: 35

Input line: Could you please provide reported growth inhibition for c1ccc2cc3c(cc2c1)Nc1c2ccccc2nc2cccc-3c12 ? Thanks!
Output line: 29

New cases:
Input line: Find the measured growth inhibition of O=C(CC(=O)c1ccccc1)CC(=O)c1ccccc1 and report it.
Output line: 38

Input line: Fill in reported growth inhibition for this entry: CCCCCCCCCCCC(=O)OCCN(CC)CC
Output line: -2

Input line: Please give the documented growth inhibition of Cn1c(=O)c2c(ncn2CCCCOc2ccc3c(c2)[n+]([O-])nc(N)[n+]3[O-])n(C)c1=O
Output line: 32
